Entries and their MIC80
Tested on: C. alb (SC5314)
assay.text: In vitro antifungal assay
Assay type: cell-based
setup.conditions: Candida albicans, SC5314, read-out: MIC80 C. alb (SC5314)
Lab book: enter the figure in mg/L, no units written.

Qu. Param item = O=C(Nc1cccc(F)c1)c1ccc(COC(Cn2ccnc2)c2ccc(Cl)cc2Cl)cc1 (stereo not drawn) ; retrieve measured MIC80.
Ans. 0.06

Qu. Cool, now O=C(Nc1ccc(Br)cc1)c1ccc(COC(Cn2ccnc2)c2ccc(Cl)cc2Cl)cc1 (stereo not drawn)
Ans. 0.06

Qu. Cool, now COc1ccc(NC(=O)c2ccc(COC(Cn3ccnc3)c3ccc(Cl)cc3Cl)cc2)cc1 (stereo not drawn)
Ans. 0.06
